Each entry below carries its recorded IC50.
- system: CyclinE1/CDK2 (Homo sapiens)
- Construct: purchased Eurofins, discovery 14-475
- assayText: Fluorescence Polarization (FP) competitive binding assay, Cyclin E1/Cdk2;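 further: readings taken after two-hour equilibration at room temperature in HEPES buffer with NaCl, DTT, NP-40 and BSA, IC50 fitted from eight-concentration serial dilution series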
*1 amine or outer side, *2 acyl side, *3 side chain or, on linkers, in order; H or OH if unused. Where a SMILES comes first, the peptide text is derived from it. Bridges are numbered along the chain shown (N, C = ends). [ ]: non-standard residue; d: D form. The star is where a group is joined. X16 = CN([C@@H](Cc1cc(Cl)ccc1-c1cnc2c(cnn2C)c1)C(=O)[*:2])[*:1]; X111 = CN([C@@H](Cc1cc(Cl)ccc1-c1nnc(C2CC2)o1)C(=O)[*:2])[*:1]; NMehhhLys(Me) = CN([C@@H](CCCCCCCN(C)[*:3])C(=O)[*:2])[*:1]; cBuCO(3,3-F2-1-CF3) = O=C(C1(C(F)(F)F)CC(F)(F)C1)*; Pro(trans-4-F) = O=C(O)[C@@H]1C[C@@H](F)CN1; Gly(cPr) = N[C@H](C(=O)O)C1CC1
Please give a number only; it is taken to be in nM.

{"molecule": "CC(C)C[C@@H]1NC(=O)[C@@H](N(C)C(=O)[C@@H](NC(=O)[C@@H]2C[C@@H](F)CN2C(=O)C2(C(F)(F)F)CC(F)(F)C2)C2CC2)CCCCCCCN(C)C(=O)[C@H](Cc2cc(Cl)ccc2-c2nnc(C3CC3)o2)N(C)C1=O [Example 240] ({cBuCO(3,3-F2-1-CF3)}-[Pro(trans-4-F)][Gly(cPr)][NMehhhLys(Me)]L[X111]; lactam 3-C)", "recordedNumber": 140}

CyclinE1/CDK2 (Homo sapiens) data for CC(C)C[C@@H]1NC(=O)[C@@H](N(C)C(=O)[C@@H](NC(=O)[C@@H]2C[C@@H](F)CN2C(=O)C2(C(F)(F)F)CC(F)(F)C2)C2CC2)CCCCCCCN(C)C(=O)[C@H](Cc2cc(Cl)ccc2-c2cnc3c(cnn3C)c2)N(C)C1=O [Example 250] ({cBuCO(3,3-F2-1-CF3)}-[Pro(trans-4-F)][Gly(cPr)][NMehhhLys(Me)]L[X16]; lactam 3-C) ; its IC50: 1620
